# Tested on: ACHN
# Test summary: NCI tumour cell line growth inhibition, 48 h
The source made the active and inactive calls. Rule as the data show it: active = GI50 up to about 1.1 µM and inactive = higher.
Measured parameter: GI50

{"Smiles representation": "N#CCCC1(CCC#N)S(=O)(=O)OCCOS1(=O)=O", "GI50": "32.4 µM (inactive)"}
{"Smiles representation": "O=C(O)c1c[nH]c2c(Sc3ccccc3)nccc2c1=O", "GI50": "> 100 µM (inactive)"}
{"Smiles representation": "C=CCc1cccc2cc(C(=O)NC3CCCCC3)c(=N)oc12", "GI50": "11.1 µM (inactive)"}
{"Smiles representation": "O=[N+]([O-])c1ccc(CSc2nncc3[nH]cnc23)cc1", "GI50": "77.4 µM (inactive)"}
{"Smiles representation": "O=C1OC[C@@H]2Cc3cc4c(cc3[C@H](c3ccc5c(c3)OCO5)[C@@H]12)OCO4", "GI50": "> 25 µM (inactive)"}

Task item: Lab request: please report GI50 under test system ACHN for `O=c1/c(=C/c2cccc([N+](=O)[O-])c2)sc2nc3ccccc3n12`
Reply: 84.7 µM (inactive)

Task item: Lab request: please report GI50 under test system ACHN for `CC(C)(C)C1CCN(C(=O)c2ccccc2)CC1`
Reply: > 100 µM (inactive)

Task item: Notebook: pull reported GI50 for ACHN, entry `CC(C)(C)OC(=O)[C@@H]1CCC(=O)N1C1(c2ccccc2)c2ccccc2-c2ccccc21`
Reply: 26.9 µM (inactive)

Task item: Item: `CC(=NNC(=S)Nc1ccc(C)cc1)c1cccc(C(C)=NNC(=S)Nc2ccc(C)cc2)n1` Test system: ACHN Read-out: GI50 Value: ?
Reply: 5.66 µM (inactive)

Task item: ACHN / GI50 / `COc1ccc(-c2cc(O)c3ccc(F)cc3n2)cc1` : value?
Reply: > 100 µM (inactive)

Task item: Can you look up GI50 on ACHN for `CC(=O)Nc1ccc(-c2nc3cc(Cl)ccc3o2)cc1` ?
Reply: > 50 µM (inactive)

###

# GI50 annotations
# System: HL-60
# Test summary: NCI tumour cell line growth inhibition, 48 h
Active and inactive are the calls of the source. No stated cut-off is given here; in the data, active = GI50 up to about 1.1 µM and inactive = higher.

// solved cases for GI50 follow
{"Compound": "O=P1(N(CCCl)CCCl)Oc2ccc(Cl)cc2Sc2c(ccc(Cl)c2Cl)O1 (stereo not given)", "Result": "4.1 µM (inactive)"}
{"Compound": "CCN(CC)c1ccc2cc(C(=O)Nc3cccc4ccccc34)c(=N)oc2c1", "Result": "7.98 µM (inactive)"}
{"Compound": "COc1cc(CNc2nc3ccccc3nc2-c2cccs2)cc(OC)c1OC", "Result": "14 µM (inactive)"}
{"Compound": "O=C1CC(NCCCNC2CC(=O)c3c(Br)sc(Br)c32)c2c(Br)sc(Br)c21 (stereo not given)", "Result": "1.38 µM (inactive)"}

Next compound, please.
Task item: Recorded GI50 for `CC1=C(C(=O)NNC(=O)CC#N)CC(C(=O)NNC(=O)CC#N)=C(C)N1` , please?
Reply: 82.6 µM (inactive)

###

# Test system: NCI-H23
# Test summary: NCI tumour cell line growth inhibition, 48 h
The source made the active and inactive calls. Cut-off read from the data, not from the text of the source: active = GI50 up to about 1.1 µM and inactive = higher.
Would you mind answering with one of these outcomes? yes for active, no for inactive

Task item: Identify the outcome logged in this assay for the compound shown: `CCOP(=O)(/C=C/n1cc(C)c(=O)[nH]c1=O)OCC`
Reply: no

Task item: What did this assay record as the result for `CCOC(=O)CSc1nnc(CSc2nc(-c3ccccc3)c(-c3ccccc3)[nH]2)n1-c1ccccc1` ?
Reply: no

Task item: # fetch the recorded call for `Cc1cc(C#N)c(Nc2ccccc2[N+](=O)[O-])s1` here
Reply: no

Task item: Identify the outcome logged in this assay for the compound shown: `O=[N+]([O-])c1cccc2nnccc12`
Reply: no

Task item: Which outcome did this test record for the compound `O=[N+]([O-])c1cc2ccc1OCc1cccc(n1)COc1ccc(cc1[N+](=O)[O-])/C=N\CCCCCCCC/N=C\2` ?
Reply: no

Task item: Field: outcome | Entry: `Cn1c(=O)c2nc(CCCc3ccc([N+](=O)[O-])cc3)[nH]c2n(C)c1=O`
Reply: no

Task item: Kindly provide the recorded test outcome for the following compound: `Cc1cc(NCCCCCCCCNc2cc(C)nc3cc(N(C)C)ccc23)c2ccc(N(C)C)cc2n1`
Reply: no

Task item: Please indicate how the test categorized CCN(CCO)CC1CCCC2CCCCC21 (centres undefined) .
Reply: no

Task item: Just curious, what result did COc1cc(/C=C2/SC(c3ccccc3)N(c3cccc(NC(C)=O)c3)C2=O)cc(OC)c1OC (centres undefined) get here?
Reply: no

Task item: Recorded test outcome, item O=C1CCCC2COc3ccc(O)c1c32 (centres undefined)
Reply: no

Task item: Hey, what did the test say about CC12CC3CC/C(=N\O)C(C1)C3(N1CCOCC1)C/C2=N/O (centres undefined) ?
Reply: no

Task item: Lab log entry: CC1CCc2sc3nc4n(c(=O)c3c2C1)CC(C)S4 (centres undefined) — outcome as called in the assay?
Reply: no
